Value source: the DeepSol protein solubility set

test.summary: soluble on expression in E. coli; label from the status in PepcDB or PDB records
assay.metric: soluble on expression in E. coli

As a guide, the following entries are already answered.
EKTEQEQILIPVANPDTIEDLINLALVIRDTKQKKELIALNVINDNNNSENKELQGKRNLEKAAMIAASADVSVNMVSRYDLNIASGIIHTIKEYDATDVVIGLHRKANIVDSFFGNLAESLLKGTHREVIIAKFLMPVN; not soluble
MSLKKMSIKVPGKLFFAGEYSVTKEGNLALITTIETNFEVRISATTGKSIFKTNVGLSDFEFSLSKIEFTKENPWNFALTALKNTLSAADSFEKKSVSKILSSSPEISLEIVSDLGFGENKKGYGSSASVVCGLVNAVNQFFDFQLSLEKRFEIAAKTHFEVQGSGSMGDIAAIMYGGSVFYQNHKRVIPLEIPWATYVVQTGKAAKTSEKIKIKLSDEFYQASNELVIELATAIDIQDFALFKEKLSENQLLLLENIPEGYMTKELAIALNLLNSYPEFAAKISGAGFGENIILFAQNTQAIAEVQNKLSEYGINLEKFKVAQKNNEGHHHHHH; soluble
MSRDARWKALLELLVERGRLDVEEAATELEVSAATIRRDFDRLAEQQMLVRTRGGAVVHGVSYELPLRYKTARRASEKQRVAQAVAALVAPGEAVGLTGGTTTTEVARALAVRADLASGTPALTVVTNALNIANELAVRPQFKIVVTGGVARAQSYELIGPLADGVLGQVTLDVAVLGVVAFDVAHGAAAHDEAEAAINRLLCERAERVVVAADSSKLGRRAFARICATESVDTLVTDGAADPELVGRFEEAGVRVVTALEHHHHHH; not soluble
MSLTGKPIVLGLTISTTAAAGVADHADHMNGSLLAQEEINANGGILGRPLELRPVDVDLLSAESCQASIRKLVDLKVHAISSPFLFVPIPAMDASANYKCPYVNGNTQRAATDMVAKHPEKYNHIFQMDPSEVFYGETFPVFLESLADSGNWKPKNNKVHIVQEQIAYCQTISRACQEALKKSRFELAKVTDIQYPVQDWGSVIRDIKKTGAGTVMMDHWVAAEYAAFCKQFRANPLKGTLIYLQYGPSQPEFLELTGKAAEGFVWSTMLGVYADKKGQAFRDKYQKRFPGKTMGLCYTGGGYDIAYMMAQAWNAVGNPDDFKAVNDYIRKTAFRGVCGWSYMNNPRQEARHFPLGTDSIESGMSQLYFQIQDGKNKIIYPPQLKEGHHHHHH; soluble

For every item in the list below, what is its measured soluble on expression in E. coli?
1. MSLTKHVAVLLAHGFEEAEAVIFIDIMRRLDIRVDILSCEATTALSTYFETPISADALLSDRLDHHYDAVMMPGGPKGTDSLTANPQVIAFLRRHIAQDKYICALCSSGAKVLAAHHLLAGRTYSTGDKLADKFADGVYLDQDVVVDGKFITAKGLGVSFEFAFTVARHLLSDNLPKVEHQASHIYFKHGSAEGHHHHHH
2. MGSDKIHHHHHHMASHLTDGVIHATTRAASLHWCIAQATKTDGALNGDGYLLKRDEDTLLFALADGVGSGQLAHDASSACLRILAASDDMDLPSLFETCHTQLTSTRGAALGLVKFFLGQGFLEWAAVGDIEGCIYPTEPTSSRTISMMQRGGTLGHYFTGITPQQHAWPPTSMLALCTDGVSRKFRERHPNDQAPREFADSCFNDFGRDNDDRTLATFSWTQEGT

Result:
1. soluble
2. not soluble

###

test.summary: soluble on expression in E. coli; label from the status in PepcDB or PDB records
assay.metric: soluble on expression in E. coli

Please review the following examples before continuing.
MTDKPTYEQTLRGNAIRAISACDLDEKVRLARETASRWFARALSVRSPLDPPLPERPGRPEKPELVPPRMLKKRSLNTEHGRIALMHALAHIELNAIDLALDIVARFAVKPIPRSFFDGWMKVADDEARHFTLLRNRLKSLGADYGDMPAHDGLWQSAHQTRNDLEARLAVVPLILEARGLDVTPSLLEKMIETGDHETAAILNIIYNDEKTHVAVGAKWFRFFCARNRIDPAARFRELVRANFRGELKPPFNELARAEAGLTPSFYRSLSPVSILEHHHHHH; not soluble
MGHHHHHHGGHMSLTVPDFQAFMRPMLEQISSGEPQKIAELYRRLAEFFALTPQDTEELLPSGKQAKYHNRILWAKFHLDRAGVLTTPSRGVVQITPLGREFLSRYPEHIGMRELQTIPAYAEFTRRSRSPAQSPAPAAPPQAECSASVPPAEQIDALYAELTANLAEELLAQVKELSPAQFERLVVEVLVAMGYGGSVRDAGQALGRSGDNGIDGLIKQDPLGLDRIYLQAKRWKNTVHSPEIRTFSGSLTYHKATKGVFITTSGFSDGAKATAGQIGNIILLDGETLAHLMIEYGVGVLTRETYQIRRLDADYFEELEGGS; soluble
MSLSGTDIHTSDYYFLFEEKFRGSRELVKARLRRYIPYFKGCRRVLDIGCGRGEFLELCKEEGIESIGVDINEDMIKFCEGKFNVVKSDAIEYLKSLPDKYLDGVMISHFVEHLDPERLFELLSLCYSKMKYSSYIVIESPNPTSLYSLINFYIDPTHKKPVHPETLKFILEYLGFRDVKIEFFEECEELTKLAKIDSNTVSEEVIRVINENIEKLNRILFGPQDYAIIAKKEGHHHHHH; soluble
MGSDKIHHHHHHMVKGLDMIFYLHGFDATSPGNHEKMRQLQFIDPDVRLLSYSTLHPKHDMQHLLKEVAKQMQHTDDPEPLMVGVGLGAYWAERIGFLNGLKSVLINPNLHPENNMQGKIDRPEEYADIASKCVSEFRLKNTHRAMCIFSVNDDVLDCKANAQELSEYYAIEWDDVQPHKFPQLAAHLPKIKAFKLA; not soluble
MSAEEQDTRSGGIQVIARAAELLRVLQAHPGGLSQAEIGERVGMARSTVSRILNALEDEGLVASRGARGPYRLGPEITRMATTVRLGVVTEMHPFLTELSRELDETVDLSILDGDRADVVDQVVPPQRLRAVSAVGESFPLYCCANGKALLAALPPERQARALPSRLAPLTANTITDRAALRDELNRIRVDGVAYDREEQTEGICAVGAVLRGVSVELVAVSVPVPAQRFYGREAELAGALLAWVSKVDAWFNGTEDRK; soluble
MGSDKIHHHHHHMKSLLAIYPGSIVSEELCIREGCLCFFDESNQRYISIPKTEISEKEVLVLQSFLTPADEGNQLSMKSPEENKWFSFLFSRGELPAYIKKRTRFVHFHLFGKIERTSFTEAVRHFWPVSFVIVWIHEDRGVIVEQESEAAAEKDELESLAKVLESDFYFSVRFYAGRFYEPDECLRKHYAREQAYFLFAEKRLPQVQSVTFEMIFPFLLLETEKEKLETLLSEEAELLFGSESELRKTIKLFIENNSNVTLTAKKLHLHRNSLQYRIDKFIERSGIDIKSYKGALLAYFICLQNESSE; not soluble

// input: 5 sequences below; output: soluble on expression in E. coli for each
1. GHMHTPFIVALDFPSKQEVERFLRPFAGTPLFVKVGMELYYQEGPAIVAFLKEQGHAVFLDLKLHDIPNTVKQAMKGLARVGADLVNVHAAGGRRMMEAAIEGLDAGTPSGRMRPRCIAVTQLTSTDERMLHEELWISRPLVETVAHYAALAKESGLDGVVCSANEAAFIKERCGASFLAVTPGIRFADDAAHDQVRVVTPRKARALGSDYIVIGRSLTRAADPLRTYARLQHEWNGGERESTTPT
2. MGSDKIHHHHHHMKFFKSLLIAPAALGLMAPVAVNADTAFSPTTKLKSSVNFTVGSNADSADGDELHSSYEMKWKATTSFTGEDKLVGKFEIGSGKTLAGGIDPQSSKGGGKTPTLTDLYYQFPLAEDLTISIGPKMDGDQGLAGTTSVYGEPVLLAADGYYALAGEGGTGATIAYAGDNGWNASLNMTAADGDDASKGIFGDDTEDYVTAQLGFDGDGFGGTFTYSDSSDTYTAYGIGAYFQPESIPVTVSAYFDSMDPEKGEEDENWVVGVEADAGPGTLGVGVGTQKGTDEKLTYEAWYDYKIADGVKITPMIWTSEDAGVGGEDLSGAALNVKYKF
3. MAHHHHHHMLCTFTTLHERIRILTDAHQLILPEELEAEFPDEAQLIKSMLAANPLQRPQIRKFLRQINKLIVALEAQESDEEAEKPPPPSPLDGTEHSESRNGNDEAATAALVDDSASALATATATSKLGNTPLSTSVAAASSSRGRPVAADLASGGHADSFSDVQDSFSSPLGEQKSRVALLPVFHSEAATGTSVAATSPMAATTSVHDTNAASAGKHVTRRGDSLASLHASTMVKRGNTYHHRRRGSASPNMEAEIGRLHICEMVATGSASRQGFFANDPYGLPTTPVMYTEDADLSTILKRDLQDRTVSAPD
4. MSSQISEIEQEQLIEKLEIFKIHGRDKRGRKILRIIGKFFPARFLSLDVLKKYLEEKIFPRLGRKPFAVLYVHTGVQRSENFPGISALRAIYDAIPVNVRDNLQEVYFLHPGLQSRLFLATCGRFLFSGGLYGKLRYISRVDYLWEHVRRNEIEMPEFVYDHDDDLEYRPMMDYGQESDHARVFAGAAVDSSVSSFSMRCIS
5. MSERHGVQEATLRNWANLGYITSCRMGNQLFLDDESLTAYLEAHKRLGLQADYLAKIVEEKKLERDFIISRYDDLLYVLRTQKTCKPLYEIIIRELSQLIVHPGARDIFYSISMGESIEKVAGRHRITYDRALQIYNSHLRGLKVRKNVLATYRKHIIDARFQSLADKSKNINLNQEERVLQLSVGKVADTRLTNVLYKEEIRTVGQLLELVSGKGWRWLLKMEGVGRISYDRLLSNLQLAGVVDESLEQILSGRSDR

Result:
["soluble", "not soluble", "not soluble", "soluble", "not soluble"]
